Hey, just so you know, these numbers are from the supplement of paper PMC13380429.

# Tested on: Vero E6 infected with SARS-CoV-2
# Test name: SARS-CoV-2 infection rate relative to infected DMSO; higher = more infection, active = 60 or less
# Stated conditions: 24 h
Assay readout: SARS-CoV-2 infection rate (%)
// return numeric value only (unit: %, not printed)

>  <Compound>
O=C(O)c1cc(-c2ccccc2)nc2ccccc12 [cinchophen] (10 µM)

>  <Scale unit>
%

>  <SARS-CoV-2 infection rate>
104

$$$$
>  <Compound>
CC(C)n1nc(C#Cc2ccccc2)c2c(N)ncnc21 (10 µM)

>  <Scale unit>
%

>  <SARS-CoV-2 infection rate>
69.5

$$$$
>  <Compound>
FCc1ccc(OCCOc2ccc(Cl)cc2Cl)c(Cl)n1 (10 µM)

>  <Scale unit>
%

>  <SARS-CoV-2 infection rate>
116

$$$$
>  <Compound>
COc1cc(C[C@@H]2NCCc3cc(O)c(O)cc32)cc(OC)c1OC [trimethoquinol] (10 µM)

>  <Scale unit>
%

>  <SARS-CoV-2 infection rate>
99.5

$$$$
>  <Compound>
CCCCCCCCCC(=O)O[C@H]1CC[C@H]2[C@@H]3CCC4=CC(=O)CC[C@@H]4[C@H]3CC[C@]12C [Nandrolone decanoate] (10 µM)

>  <Scale unit>
%

>  <SARS-CoV-2 infection rate>
103

$$$$

Q: Item under review: N#Cc1cc(F)cc(-c2nc(-c3ccc(F)cn3)no2)c1 (10 µM) . Reported SARS-CoV-2 infection rate?
A: 89

Q: // returns reported SARS-CoV-2 infection rate for input c1ccc2c(c1)CCCC2C1=NCCN1 (configuration not stated) [tetrahydrozoline] (0.833333 µM)
A: 103

Q: I am curious: what SARS-CoV-2 infection rate value has been reported for O=C(O)C1=CCCN(CCOC(c2ccc(C(F)(F)F)cc2)c2ccc(C(F)(F)F)cc2)C1 (10 µM) ?
A: 103

Q: // returns reported SARS-CoV-2 infection rate for input Cn1ncnc1[C@H]1c2n[nH]c(=O)c3cc(F)cc(c23)N[C@@H]1c1ccc(F)cc1 [talazoparib] (0.833333 µM)
A: 113

Q: // returns reported SARS-CoV-2 infection rate for input NCCCC[C@H](N[C@@H](CCc1ccccc1)C(=O)O)C(=O)N1CCC[C@H]1C(=O)O [lisinopril] (10 µM)
A: 100
